System: BT-549 breast
Experiment: NCI tumour cell line growth inhibition, 48 h; in the data active = GI50 below about 0.43 µM; inactive = the rest
Entry note: the call must match one of y for active, n for inactive

See these solved cases before continuing.
Each compound tested received a call. Report the one for C[N+]1=C(/C=C/c2ccc(O)c3ncccc23)C(C)(C)c2ccccc21 . n

Each compound tested received a call. Report the one for CCCCCCCC[C@@H](O)CC(=O)N[C@@H](CC(N)=O)C(=O)N[C@@H](CCC(N)=O)C(=O)N[C@@H](CC(=O)c1cc(C)cc(O)c1C(=O)c1c(O)cccc1O)CC(C)C . y

Each compound tested received a call. Report the one for CCCC(=O)OCC1OC(n2cnc3c(=S)nc[nH]c32)C(OC(=O)CCC)C1OC(=O)CCC (centres undefined) . n

Now consider a different compound.
Each compound tested received a call. Report the one for O=C(Nc1ccc(-c2nc(N3CCOCC3)c3cccn3n2)cc1)Nc1cccnc1 . y

====

System: NCI-H522 lung
Assay: NCI tumour cell line growth inhibition, 48 h
Catalogue of TGI readings, one per entry.

Worked examples, 5 compounds total:
What value of TGI has been recorded for this entry: C[C@@H]1OC(=O)N2CCCC(=C3SCCCS3)C12 (some centres not stated) > 100 µM

What value of TGI has been recorded for this entry: O=C1c2ccccc2C(=O)c2c1cc(S(=O)(=O)O)c(O)c2O > 100 µM

What value of TGI has been recorded for this entry: COc1cc[nH]c1/C=C1\C(=O)Nc2ccc(F)c(C#CC3(O)CCNCC3)c21 0.715 µM

What value of TGI has been recorded for this entry: Cc1ccc([N+](=O)[O-])cc1S(=O)(=O)Nc1ccc(C2=NN(c3ccc([N+](=O)[O-])cc3[N+](=O)[O-])C(c3cccs3)C2)cc1 (configuration not stated) 39 µM

What value of TGI has been recorded for this entry: CN(C)c1ccc(/C=C2/NC(=S)NC2=O)cc1 > 100 µM

More entries:
What value of TGI has been recorded for this entry: CNC(=O)C1CCc2nnc(-c3ccccc3)n21 (configuration not stated) > 100 µM

What value of TGI has been recorded for this entry: OCCCNc1nc(=S)[nH]c2[nH]ncc12 > 100 µM

====

Test system: OVCAR-4 ovarian
Test: NCI tumour cell line growth inhibition, 48 h
Result type: TGI

Worked examples, 4 compounds total:
What value of TGI has been recorded for this entry: COC(=O)Nc1nc2ccc(Oc3ccc(NC(=O)Nc4cc(C(F)(F)F)ccc4F)cc3)cc2s1 > 20.2 µM

What value of TGI has been recorded for this entry: Cc1ccc(C(=O)NC(C)C)cc1-c1ccc(C(=O)NCC2CC2)cc1 > 25 µM

What value of TGI has been recorded for this entry: CCC(C)(C)C1CCC2c3c([nH]c4ccccc34)C3C(=O)N(c4ccc(OC)cc4)C(=O)C3C2C1 (stereo not given) > 100 µM

What value of TGI has been recorded for this entry: C[N+](C)(C)CCCSc1nc2ccccc2[nH]1 > 100 µM

With those in mind, consider the next compound.
What value of TGI has been recorded for this entry: CC(C)(C)c1cc(CCC(=O)Nc2ccc(Cl)cc2)nc(NC#N)n1 > 100 µM

====

Catalogue of TGI readings, one per entry.
Test system: HOP-92 NSCLC
Assay: NCI tumour cell line growth inhibition, 48 h

Worked examples, 2 molecules total:
What value of TGI has been recorded for this entry: O=C1CCC2(c3ccccc3)Nc3ccncc3N12 (stereo not drawn) > 10 µM

What value of TGI has been recorded for this entry: COc1ccccc1N(CN1C(=O)CCC1C(=O)O)C(C)=O (stereo not drawn) > 100 µM

With those in mind, consider the next molecule.
What value of TGI has been recorded for this entry: COc1ccc(N2C(=O)/C(=C/c3ccc(N(CCC#N)CCC#N)cc3C)N=C2c2cc([N+](=O)[O-])ccc2Cl)cc1 > 100 µM
